- experiment_notes: self-splicing fitness, log relative to wild type (ln ratio); higher = more splicing; Tetrahymena group I intron in knt gene, E. coli kanamycin selection, DiMSum; sequences stand for … in CUCUCU…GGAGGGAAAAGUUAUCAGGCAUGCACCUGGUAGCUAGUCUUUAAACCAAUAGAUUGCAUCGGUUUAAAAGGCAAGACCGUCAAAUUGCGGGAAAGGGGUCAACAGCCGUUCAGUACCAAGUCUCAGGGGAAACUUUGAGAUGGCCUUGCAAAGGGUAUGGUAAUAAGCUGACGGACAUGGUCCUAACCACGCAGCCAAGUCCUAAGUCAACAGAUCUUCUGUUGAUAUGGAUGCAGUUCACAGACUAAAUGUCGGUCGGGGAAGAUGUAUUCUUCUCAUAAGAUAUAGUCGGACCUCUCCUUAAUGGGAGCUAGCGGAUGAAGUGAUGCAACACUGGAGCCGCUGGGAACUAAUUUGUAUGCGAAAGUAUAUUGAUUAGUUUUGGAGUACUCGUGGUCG;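 note: selection with 25 µg/mL kanamycin versus none on LB agar overnight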
- details: 30 °C
measurement_kind: self-splicing fitness (ln)

sequence_string=UGUUAGCAAUAUUACGGUCG quantitative_readout=-0.217
sequence_string=CCCAAGCAAUAUUACGGUAU quantitative_readout=-4.33
sequence_string=CACCAGCAAUAUUACGUUUG quantitative_readout=-0.595
sequence_string=ACCUAGCAAUAUUACGGCAU quantitative_readout=-0.00618
sequence_string=CUCUAGCAAUAUUACGGAAU quantitative_readout=-3.43
sequence_string=AAUUAGCAAUAUUACGGGAA quantitative_readout=-1.88
sequence_string=UCCCAGCAAUAUUACGGACU quantitative_readout=-2.81
sequence_string=CGUCAGCAAUAUUACGCUGU quantitative_readout=-4.26
sequence_string=GAGUAGCAAUAUUACGAUUA quantitative_readout=-0.577
sequence_string=GGAUAGCAAUAUUACGAAGU quantitative_readout=-2.68
sequence_string=CGUAAGCAAUAUUACGACAU quantitative_readout=-3.25
sequence_string=GCAAAGCAAUAUUACGAUAU quantitative_readout=-1.41
sequence_string=GAUAAGCAAUAUUACGCGAG quantitative_readout=-1.04
sequence_string=AACUAGCAAUAUUACGGGUU quantitative_readout=-3.03
sequence_string=GACUAGCAAUAUUACGUCUA quantitative_readout=-2.89
sequence_string=CGACAGCAAUAUUACGUAUU quantitative_readout=-3.09

###

- experiment_notes: self-splicing fitness, log relative to wild type (ln ratio); higher = more splicing; Tetrahymena group I intron in knt gene, E. coli kanamycin selection, DiMSum; sequences stand for … in CUCUCU…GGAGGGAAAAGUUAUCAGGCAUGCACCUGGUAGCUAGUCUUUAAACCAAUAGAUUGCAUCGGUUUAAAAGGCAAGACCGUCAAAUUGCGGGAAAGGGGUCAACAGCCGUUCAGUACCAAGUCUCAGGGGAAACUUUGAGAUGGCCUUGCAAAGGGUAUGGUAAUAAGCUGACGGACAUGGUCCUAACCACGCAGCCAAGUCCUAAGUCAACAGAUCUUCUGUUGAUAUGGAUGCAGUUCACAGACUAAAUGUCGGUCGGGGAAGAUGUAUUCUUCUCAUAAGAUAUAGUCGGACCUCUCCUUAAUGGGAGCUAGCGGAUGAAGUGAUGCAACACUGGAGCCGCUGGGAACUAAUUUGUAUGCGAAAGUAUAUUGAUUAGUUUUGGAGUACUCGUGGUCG
- details: 37 °C
Collected self-splicing fitness (ln) values appear next to each entry.
measurement_kind: self-splicing fitness (ln)

sequence_string=UCCGAGCAAUAUUACGCAGG quantitative_readout=-1.88
sequence_string=UGGAAGCAAUAUUACGCCUA quantitative_readout=-0.109
sequence_string=CACUAGCAAUAUUACGCGUU quantitative_readout=-0.877
sequence_string=CCGAAGCAAUAUUACGUUCG quantitative_readout=-1.26
sequence_string=AGCAAGCAAUAUUACGAGUG quantitative_readout=-0.683
sequence_string=CACAAGCAAUAUUACGAGAC quantitative_readout=-2.51
sequence_string=AUCUAGCAAUAUUACGCUAU quantitative_readout=-1.49
sequence_string=UUAGAGCAAUAUUACGAGUC quantitative_readout=-2.53
sequence_string=AGCCAGCAAUAUUACGCUGG quantitative_readout=-2.32
sequence_string=AUUUAGCAAUAUUACGGUCA quantitative_readout=-0.48
sequence_string=ACCGAGCAAUAUUACGUGAC quantitative_readout=-1.4
sequence_string=GCCCAGCAAUAUUACGUUUU quantitative_readout=-0.591
sequence_string=CAUAAGCAAUAUUACGCGCU quantitative_readout=-2.34
sequence_string=GACCAGCAAUAUUACGCCGU quantitative_readout=-0.0427
sequence_string=UCAAAGCAAUAUUACGCACC quantitative_readout=-0.644
sequence_string=UCUUAGCAAUAUUACGCCGG quantitative_readout=0.459
sequence_string=UGACAGCAAUAUUACGACAA quantitative_readout=0.15
sequence_string=UCUUAGCAAUAUUACGAUCG quantitative_readout=-0.631
sequence_string=CUUUAGCAAUAUUACGUGGA quantitative_readout=-3.58
sequence_string=CGCCAGCAAUAUUACGUGAU quantitative_readout=-2.27
sequence_string=UCCUAGCAAUAUUACGUUGA quantitative_readout=0.0396
sequence_string=UCAUAGCAAUAUUACGGGGG quantitative_readout=-2.27
sequence_string=CUAAAGCAAUAUUACGUAUG quantitative_readout=0.0627
sequence_string=AGCCAGCAAUAUUACGUGCU quantitative_readout=-2.06
sequence_string=UGUUAGCAAUAUUACGGAUC quantitative_readout=-1.81
sequence_string=GGCUAGCAAUAUUACGCGAU quantitative_readout=-0.776
sequence_string=CGGCAGCAAUAUUACGCUGC quantitative_readout=-1.5
sequence_string=AGAAAGCAAUAUUACGCGGU quantitative_readout=-1.92
sequence_string=GACUAGCAAUAUUACGUUCA quantitative_readout=-0.533
sequence_string=AAGUAGCAAUAUUACGUCAC quantitative_readout=-3.73
sequence_string=UUCUAGCAAUAUUACGUAUC quantitative_readout=-2.05
sequence_string=UUUUAGCAAUAUUACGGCUG quantitative_readout=-0.495
sequence_string=AUUUAGCAAUAUUACGAUAC quantitative_readout=-1.01
sequence_string=UAAGAGCAAUAUUACGAGUA quantitative_readout=-2.66
sequence_string=AGCAAGCAAUAUUACGAAGA quantitative_readout=-1.74
sequence_string=CUUUAGCAAUAUUACGCAGC quantitative_readout=-2.27
sequence_string=GGUGAGCAAUAUUACGCUAU quantitative_readout=-2.94
sequence_string=GUUAAGCAAUAUUACGCACC quantitative_readout=-2.13
sequence_string=GGUGAGCAAUAUUACGGAUC quantitative_readout=0.263
sequence_string=CGUAAGCAAUAUUACGGAUC quantitative_readout=-3.44
sequence_string=CACCAGCAAUAUUACGUAGC quantitative_readout=-2.41
sequence_string=CGCCAGCAAUAUUACGGACG quantitative_readout=-2.95
sequence_string=GGAGAGCAAUAUUACGAUAA quantitative_readout=-0.957
sequence_string=GGGGAGCAAUAUUACGUAAC quantitative_readout=-0.204
sequence_string=GAGAAGCAAUAUUACGGUCG quantitative_readout=-0.253
sequence_string=UUUAAGCAAUAUUACGAGUC quantitative_readout=-2.65
sequence_string=UUGGAGCAAUAUUACGUCUU quantitative_readout=-2.09
sequence_string=AGCGAGCAAUAUUACGUAAC quantitative_readout=-1.46
sequence_string=AUCAAGCAAUAUUACGGUAG quantitative_readout=-2.53
sequence_string=GGACAGCAAUAUUACGAGAG quantitative_readout=-2.09
sequence_string=ACCUAGCAAUAUUACGCGAG quantitative_readout=-1.55
sequence_string=ACUUAGCAAUAUUACGCCGU quantitative_readout=-1.11
sequence_string=AUUUAGCAAUAUUACGAAGG quantitative_readout=-2.76
sequence_string=CGCUAGCAAUAUUACGCGAU quantitative_readout=-2.25
sequence_string=GAAUAGCAAUAUUACGAAAA quantitative_readout=-1.02
sequence_string=GGUGAGCAAUAUUACGGCGU quantitative_readout=-0.494
sequence_string=UGCAAGCAAUAUUACGUUAG quantitative_readout=-2.02
sequence_string=UUACAGCAAUAUUACGCAAU quantitative_readout=-2.23
sequence_string=CCAAAGCAAUAUUACGUAGU quantitative_readout=-3.14
sequence_string=GCCUAGCAAUAUUACGCUGA quantitative_readout=-0.266
sequence_string=GCCUAGCAAUAUUACGGCCU quantitative_readout=-1.33
sequence_string=UGCGAGCAAUAUUACGCGAA quantitative_readout=-2.19
sequence_string=CCAUAGCAAUAUUACGUAGG quantitative_readout=-1.37
sequence_string=ACCCAGCAAUAUUACGCUGA quantitative_readout=-0.241
sequence_string=UGUGAGCAAUAUUACGUGUA quantitative_readout=-1.46
sequence_string=UUGAAGCAAUAUUACGUUAC quantitative_readout=-2.51
sequence_string=GAUGAGCAAUAUUACGAUGA quantitative_readout=-2.79
